Tested on: Panc-1 and MiaPaCa-2 pancreatic cancer cells
Method: Cell viability assay (Table 3)
Protocol Conditions: viability assay, cell line not given; N/I = no inhibition at the highest concentration tested
Observable: Cell viability (IC50)

> print(dat)
                                 smiles.str                              study.target  reported.value
1  Nc1ccc(S(=O)(=O)Nc2ccc(S(=O)(=O)Nc3nnc(S(N)(=O)=O)s3)cc2)cc1  Panc-1 and MiaPaCa-2 pancreatic cancer cells             N/I
2  COc1cc(NS(=O)(=O)c2ccc(Nc3ccco3)cc2)nc(OC)n1  Panc-1 and MiaPaCa-2 pancreatic cancer cells             N/I
3  O=C(Nc1ccccc1)c1ccccc1NC(=O)c1ccccc1C(=O)O  Panc-1 and MiaPaCa-2 pancreatic cancer cells             N/I

---

Tested on: phospho-Ser473-AKT in BxPC-3
Method: Cellular AKT inhibition, Western blot phospho-Ser473-AKT, BxPC-3 cells
Format: cell-based, human
Protocol Conditions: Homo sapiens; BxPC-3, Western blots phospho-Ser473-AKT, 10 μM; NI = not inhibitory; read-out: % pAKT Inhibition, At 10 μM
Values of inhibition at 10 µM greater than or equal to 20% map to 1; values below map to 0.

> print(dat)
                                    compound  group
 1     Nc1ccc(S(=O)(=O)Nc2nnc(CC(=O)O)s2)cc1      1
 2       CCCCCCCCc1ccc(S(=O)(=O)Nc2nncs2)cc1      0
 3          CCc1nnc(NS(=O)(=O)c2ccc(N)cc2)s1      0
 4  CCCCCCCCCC(=O)Nc1ccc(S(=O)(=O)Nc2nnc(CC)s2)cc1      1
 5  CCCCCCCCCCCCCCCCc1ccc(S(=O)(=O)Nc2nncs2)cc1      1
 6  CCCCCCCCCC(=O)Nc1ccc(S(=O)(=O)Nc2nnc(C(=O)OCC)s2)cc1 [Compound 123E]      0
 7  CCCCCCCCCC(=O)Nc1ccc(S(=O)(=O)Nc2nnc(C(C)(C)C)s2)cc1      0
 8  CCCCCCCCCCCCc1ccc(S(=O)(=O)Nc2nnc(C)s2)cc1      1
 9          Nc1ccc(S(=O)(=O)Nc2nnc(CO)s2)cc1      0
10  CC(=O)Nc1ccc(S(=O)(=O)Nc2nnc(CC(=O)O)s2)cc1      0
11  CCCCCCCCCC(=O)Nc1ccc(S(=O)(=O)Nc2nnc(CO)s2)cc1      0
12  CCCCCCCCCC(=O)Nc1ccc(S(=O)(=O)Nc2nnc(CC(=O)O)s2)cc1      1
13  CCCCCCCCCC(=O)Nc1ccc(S(=O)(=O)Nc2nnc(C)s2)cc1      0
14  CCCCCCCCCCCCCCc1ccc(S(=O)(=O)Nc2nncs2)cc1      1
15    CC(C)(C)c1nnc(NS(=O)(=O)c2ccc(N)cc2)s1      0
16  CCCCCCCCCCCCc1ccc(S(=O)(=O)Nc2nnc(C(C)(C)C)s2)cc1      1
17  CCOC(=O)Cc1nnc(NS(=O)(=O)c2ccc(NC(C)=O)cc2)s1 [Compound 118E]      1

---

Tested on: HT-29 cells
Method: Cell survival / cytotoxicity, MTT assay, HT-29 cells
Assay type: cell-based, human
Protocol Conditions: HT-29 cells; NI = not inhibitory; read-out: Cytotoxicity (IC50 μM)
# IC50 per record follows
Observable: IC50 (µM)

> print(dat)
                                   compound  observable   u  reported.value
1  CC1=NN(C(=O)c2ccccc2)C(=O)C1/N=N/c1ccc(S(=O)(=O)Nc2ncccn2)cc1 (centres unmarked) [Compound 331]        IC50  µM              14
2  CC1=NN(C(=O)c2ccc(C(C)(C)C)cc2)C(=O)C1/N=N/c1ccc(S(=O)(=O)Nc2ncccn2)cc1 (centres unmarked) [Compound 332]        IC50  µM              25

---

Method: Solubility
Format: physicochemical
# Solubility per record follows
Observable: Solubility

> print(dat)
                                   compound  reported.value
1  CC1=NN(C(=O)c2ccc(C(C)(C)C)cc2)C(=O)C1/N=N/c1ccc(S(=O)(=O)Nc2ncccn2)cc1 (centres unmarked)         28.6 µM
2  CC1=NN(C(=O)c2ccc(Cl)cc2)C(O)C1/N=N/c1ccc(S(=O)(=O)Nc2ncccn2)cc1 (centres unmarked)         <0.1 µM
3  CC1=NN(C(=O)c2ccccc2)C(=O)C1/N=N/c1ccc(S(=O)(=O)Nc2ncccn2)cc1 (centres unmarked)         28.3 µM
4  CC1=NN(C(=O)c2ccc(N)cc2)C(=O)C1/N=N/c1ccc(S(=O)(=O)Nc2ncccn2)cc1 (centres unmarked)         12.9 µM
5  CC1=NN(C(=O)c2ccc(O)cc2)C(=O)C1/N=N/c1ccc(S(=O)(=O)Nc2ncccn2)cc1 (centres unmarked)         13.1 µM

---

Test system: phospho-Ser473-AKT in Panc-1 cells
Method: Cellular AKT inhibition, Western blot phospho-Ser473-AKT, Panc-1 cells
Protocol Conditions: read-out: pAKT inhibition (IC50); Panc-1, Western blots phospho-Ser473-AKT
Observable: IC50

> print(dat)
                                 smiles.str                        study.target  reported.value
1  COCCOCCOCC(=O)Nc1ccc(S(=O)(=O)Nc2nncs2)cc1  phospho-Ser473-AKT in Panc-1 cells         > 50 µM

---

Study Target: PH domain of PDK1 (Homo sapiens (Human), UniProt O15530)
Sequence (O15530 459-550): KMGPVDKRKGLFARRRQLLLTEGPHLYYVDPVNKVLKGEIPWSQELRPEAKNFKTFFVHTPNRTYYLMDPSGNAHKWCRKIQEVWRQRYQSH
Observable: Kd (µM)

> print(dat)
                                   compound   u  reported.value
1  CC1=NN(C(=O)c2ccc(C(C)(C)C)cc2)C(=O)C1/N=N/c1ccc(S(=O)(=O)Nc2ncccn2)cc1 (stereo not shown)  µM            3.57

---

Study Target: IRS1 PH domain (Homo sapiens (Human))
Sequence (P35568 12-115): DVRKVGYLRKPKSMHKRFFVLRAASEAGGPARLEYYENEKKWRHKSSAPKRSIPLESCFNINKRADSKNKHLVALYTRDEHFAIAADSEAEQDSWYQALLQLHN
pKd: −log10 of the molar value.
Observable: pKd

> print(dat)
                                   compound  reported.value
1  CC1=NN(C(=O)c2ccc(N)cc2)C(=O)C1/N=N/c1ccc(S(=O)(=O)Nc2ncccn2)cc1 (stereo not shown)            6.85

---

System: phospho-Ser473-AKT in MiaPaCa-2 cells
Method: Cellular AKT inhibition, Western blot phospho-Ser473-AKT, MiaPaCa-2 cells
Protocol Conditions: read-out: pAKT inhibition (IC50); MiaPaca-2, Western blots phospho-Ser473-AKT
Observable: IC50

> print(dat)
                                 smiles.str  reported.value
1  COCCOCCOCC(=O)Nc1ccc(S(=O)(=O)Nc2nncs2)cc1         > 50 µM
